# System Under Test: 11β HSD1 (11β-hydroxysteroid dehydrogenase type 1) (Homo sapiens)
# Construct: purified recombinant human 11β HSD1
# Sequence (P28845 whole entry): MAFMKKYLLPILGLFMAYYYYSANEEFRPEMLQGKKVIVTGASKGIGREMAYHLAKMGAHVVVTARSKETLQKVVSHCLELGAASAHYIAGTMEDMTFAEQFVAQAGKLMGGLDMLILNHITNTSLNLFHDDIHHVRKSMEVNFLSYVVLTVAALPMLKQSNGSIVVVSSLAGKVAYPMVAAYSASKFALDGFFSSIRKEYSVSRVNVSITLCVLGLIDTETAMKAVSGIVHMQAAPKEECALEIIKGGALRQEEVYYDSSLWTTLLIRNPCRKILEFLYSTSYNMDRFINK
# Procedure Summary: in vitro enzyme inhibition assay with purified recombinant enzyme
Readout Name: Ki (nM)
Reply with just the number (in nM).

Could you tell me which Ki is on file for "C[C@H](NC1=NC(=O)[C@@](C)(C(F)(F)F)S1)c1ccccc1F" ?
29

----------
# System Under Test: 11β HSD1 (11β-hydroxysteroid dehydrogenase type 1) (Mus musculus, UniProt P50172)
# Construct: purified recombinant mouse 11β HSD1
# Sequence (P50172 whole entry): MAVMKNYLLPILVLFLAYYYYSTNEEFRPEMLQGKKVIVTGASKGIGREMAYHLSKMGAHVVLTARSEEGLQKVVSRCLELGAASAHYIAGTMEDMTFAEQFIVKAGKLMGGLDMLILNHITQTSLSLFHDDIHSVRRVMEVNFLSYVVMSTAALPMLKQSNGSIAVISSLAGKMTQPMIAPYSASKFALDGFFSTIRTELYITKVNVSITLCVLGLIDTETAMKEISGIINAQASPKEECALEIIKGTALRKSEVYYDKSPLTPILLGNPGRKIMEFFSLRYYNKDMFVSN
# Procedure Summary: in vitro enzyme inhibition assay with purified recombinant enzyme
Readout Name: pKi
The meaning of pKi here: minus log10 of the concentration in molar units.

Could you tell me which pKi is on file for C[C@H](NC1=NC(=O)[C@@](C)(C(F)(F)F)S1)c1ccccc1F [BVT116429] ?
7.44
